# system.name: PilBN (Chloracidobacterium thermophilum)
# Sequence (G2LDI3 1-146): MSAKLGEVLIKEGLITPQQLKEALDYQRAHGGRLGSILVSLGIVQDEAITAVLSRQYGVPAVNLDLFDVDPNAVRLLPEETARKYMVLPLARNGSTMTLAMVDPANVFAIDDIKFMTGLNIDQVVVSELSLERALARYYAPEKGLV
quantity.name: Kd (µM)
Enter your answer as a number in µM; do not include the unit.

Record "Nc1nc2c(ncn2[C@@H]2O[C@@H]3COP(=O)(O)O[C@H]4[C@@H](O)[C@H](n5cnc6c(=O)[nH]c(N)nc65)O[C@@H]4COP(=O)(O)O[C@H]3[C@H]2O)c(=O)[nH]1" : what is its Kd with PilBN (Chloracidobacterium thermophilum)?
0.107

----------
# system.name: Full-length PilB (CtPilB) (Chloracidobacterium thermophilum, UniProt G2LDI3)
# Sequence (G2LDI3 1-614): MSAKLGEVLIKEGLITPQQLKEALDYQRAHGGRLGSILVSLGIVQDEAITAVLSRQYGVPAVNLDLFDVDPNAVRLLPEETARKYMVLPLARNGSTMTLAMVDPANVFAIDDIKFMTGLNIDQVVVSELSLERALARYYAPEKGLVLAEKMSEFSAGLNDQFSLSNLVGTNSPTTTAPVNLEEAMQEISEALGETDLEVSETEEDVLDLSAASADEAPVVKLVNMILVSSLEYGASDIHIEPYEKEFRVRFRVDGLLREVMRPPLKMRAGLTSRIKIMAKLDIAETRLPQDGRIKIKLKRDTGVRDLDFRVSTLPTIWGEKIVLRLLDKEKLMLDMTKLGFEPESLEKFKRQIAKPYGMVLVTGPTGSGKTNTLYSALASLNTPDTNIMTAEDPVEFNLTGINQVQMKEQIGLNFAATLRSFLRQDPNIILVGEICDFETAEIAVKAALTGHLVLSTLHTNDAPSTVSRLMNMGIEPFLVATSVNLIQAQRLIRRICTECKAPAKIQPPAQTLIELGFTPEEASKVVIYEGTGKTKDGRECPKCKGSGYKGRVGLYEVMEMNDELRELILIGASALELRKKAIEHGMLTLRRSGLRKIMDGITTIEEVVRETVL
# measurement.protocol: ITC ligand binding to full-length PilB with or without effector
# condition.description: read-out: apparent dissociation constant KD; ITC, 25 °C, no effector, 15 μM PilB
quantity.name: Kd (µM)
Please respond with the number in µM and leave the unit unwritten.

What does the data say about its Kd? Entry: "Nc1ncnc2c1ncn2[C@@H]1O[C@H](COP(=O)(O)OP(=O)(O)O)[C@@H](O)[C@H]1O"
4.3

----------
Target protein (sequence): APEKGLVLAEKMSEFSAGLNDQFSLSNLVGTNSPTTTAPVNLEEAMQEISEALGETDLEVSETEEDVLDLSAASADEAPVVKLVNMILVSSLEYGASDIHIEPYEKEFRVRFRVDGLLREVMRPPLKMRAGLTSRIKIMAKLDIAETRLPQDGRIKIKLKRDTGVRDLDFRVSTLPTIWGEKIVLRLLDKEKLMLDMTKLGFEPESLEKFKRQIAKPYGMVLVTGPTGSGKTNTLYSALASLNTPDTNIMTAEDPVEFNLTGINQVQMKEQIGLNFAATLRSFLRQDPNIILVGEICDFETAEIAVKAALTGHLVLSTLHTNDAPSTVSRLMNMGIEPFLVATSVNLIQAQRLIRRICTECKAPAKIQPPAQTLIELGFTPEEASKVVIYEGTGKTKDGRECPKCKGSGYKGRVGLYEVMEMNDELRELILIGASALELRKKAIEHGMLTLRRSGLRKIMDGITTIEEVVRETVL
quantity.name: pKd
# pKd: negative log10 of molar concentration; output just the value

Could you share which pKd value was measured for "Nc1ncnc2c1ncn2[C@@H]1O[C@H](CO[P@](=O)(O)O[P@](=O)(O)O[P@@](=O)(O)S)[C@@H](O)[C@H]1O" ?
5.28

----------
# system.name: Full-length PilB (CtPilB) (Chloracidobacterium thermophilum)
# measurement.protocol: ITC ligand binding to full-length PilB with or without effector
# condition.description: apparent dissociation constant KD, ITC, 25 °C, no effector, 5.3 μM PilB
quantity.name: Kd (nM)
Your answer should be a plain number; it is taken to be in nM.

Using the record for "Nc1nc2c(ncn2[C@@H]2O[C@@H]3COP(=O)(O)O[C@H]4[C@@H](O)[C@H](n5cnc6c(=O)[nH]c(N)nc65)O[C@@H]4COP(=O)(O)O[C@H]3[C@H]2O)c(=O)[nH]1" , report its Kd.
53

----------
# system.name: Full-length PilB (CtPilB) (Chloracidobacterium thermophilum, UniProt G2LDI3)
# measurement.protocol: ITC ligand binding to full-length PilB with or without effector
# condition.description: apparent dissociation constant KD, ITC, 25 °C, no effector, 15 μM PilB
quantity.name: pKd
Friendly reminder that pKd comes from taking -log10 of the concentration in mol/L.

Dear colleague, I am looking for the recorded pKd of the following compound: "Nc1ncnc2c1ncn2[C@@H]1O[C@H](CO[P@](=O)(O)O[P@](=O)(O)O[P@@](=O)(O)S)[C@@H](O)[C@H]1O"
5.42
